system-tested: the molecule itself
test-summary: AUC; sedimentation equilibrium, starting concentrations 5, 10 and 20 µM, unlabelled peptide, no DMSO; 20 °C, sodium phosphate pH 6.8 with NaCl; fitted to a single ideal species (N) and, for the WT, to a dimer-tetramer model (apparent KD: tetramer to dimers)
No end group written: not given here.
endpoint-name: Kd

protein	endpoint-name	value-reported
LSPDAYRFLTEQDRQLRLLQAQIQRLLEAQSL-NH2 (STIL (SCL/TAL1 Interrupting Locus) coiled-coil domain, residues 718-749; 32-residue peptide, unlabelled; also called WT STIL CCD peptide; WT CCD; source: synthetic peptide (Fmoc-SPPS on rink amide, RP-HPLC purified)) [STIL CCD_(718–749) WT]	Kd	68 µM

These entries and their values trace back to paper PMC10572602.
